# Measured Target: Bcl-xL, Q07817
# Sequence (Q07817 1-209): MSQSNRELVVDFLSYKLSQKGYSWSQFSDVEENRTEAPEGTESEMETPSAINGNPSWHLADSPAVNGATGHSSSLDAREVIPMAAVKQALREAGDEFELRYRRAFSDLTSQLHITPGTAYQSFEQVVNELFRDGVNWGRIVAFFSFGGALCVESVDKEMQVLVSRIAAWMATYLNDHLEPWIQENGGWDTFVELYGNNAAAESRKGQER
# Experiment Description: peptide SPOT array, c-Myc-tagged receptor at 1 uM or 100 nM, anti-c-Myc-Cy3
Quantity Measured: SPOT signal as a fraction of Bim BH3's signal on the same receptor and array

// below: answered binders
GSGPSKTSRVLQNVAFSVQKEVEKNL [BCL2A1]    0.06
DTIYQGFAECLIRLGDSMGRGGELET [NRN1L]    0.035

A. LRVSTKIGSCDKSVGEVMGIGRSFEE [CAD]
B. AIKWDPTGNLDASCSDDMTLKIWSMK [TBL1XR1]
C. NKQLRKETESDRKIALEAQKKAKVKI [SCLT1]
D. VLAPVQLGKWLVLFLDEINLPDMDKY [DYNC1H1]
Prompt line: Rank order required: SPOT signal as a fraction of Bim BH3's signal on the same receptor and array, descending. List each label, following the requested order.
Response line: C, D, B, A

I. IGFFIAFGIADGKMGDQAKLMVDFFN [SLC1A2]
II. EQWAREIGAQDRRMADDLNAQYERRR [BBC3]
III. EVRSSQFARKLWRSLRRISQVSSGET
IV. AELRLFLAQRDRWLCDSCPASRATCV
Prompt line: Rank order required: SPOT signal as a fraction of Bim BH3's signal on the same receptor and array, descending. List each label, following the requested order.
Response line: III, IV, II, I

A. GKPETCTGQDLADLLDRLRDWFQLLH [SPOCK2]
B. AFGLGDLPNLDGLVGDQLGDTERKRR [ADAMTS14]
Prompt line: When the recorded SPOT signal as a fraction of Bim BH3's signal on the same receptor and array values are compared, which is smaller: that of A or that of B ? Kindly give the label for the entry you pick.
Response line: A

I. TNISWRACDHDRCIACDFLVVSYDDY [C8orf37]
II. NKSLTTLGLVISSLLDQAAGKGKSKF [KIF13A]
Prompt line: When the recorded SPOT signal as a fraction of Bim BH3's signal on the same receptor and array values are compared, which is smaller: that of I or that of II ? Kindly give the label for the entry you pick.
Response line: I
